EXPERIMENTAL_TARGET: Human C3 (Complement tech cat #A113c) (human, UniProt P01024 23-1663)
Sequence (P01024 23-1663 limits assumed): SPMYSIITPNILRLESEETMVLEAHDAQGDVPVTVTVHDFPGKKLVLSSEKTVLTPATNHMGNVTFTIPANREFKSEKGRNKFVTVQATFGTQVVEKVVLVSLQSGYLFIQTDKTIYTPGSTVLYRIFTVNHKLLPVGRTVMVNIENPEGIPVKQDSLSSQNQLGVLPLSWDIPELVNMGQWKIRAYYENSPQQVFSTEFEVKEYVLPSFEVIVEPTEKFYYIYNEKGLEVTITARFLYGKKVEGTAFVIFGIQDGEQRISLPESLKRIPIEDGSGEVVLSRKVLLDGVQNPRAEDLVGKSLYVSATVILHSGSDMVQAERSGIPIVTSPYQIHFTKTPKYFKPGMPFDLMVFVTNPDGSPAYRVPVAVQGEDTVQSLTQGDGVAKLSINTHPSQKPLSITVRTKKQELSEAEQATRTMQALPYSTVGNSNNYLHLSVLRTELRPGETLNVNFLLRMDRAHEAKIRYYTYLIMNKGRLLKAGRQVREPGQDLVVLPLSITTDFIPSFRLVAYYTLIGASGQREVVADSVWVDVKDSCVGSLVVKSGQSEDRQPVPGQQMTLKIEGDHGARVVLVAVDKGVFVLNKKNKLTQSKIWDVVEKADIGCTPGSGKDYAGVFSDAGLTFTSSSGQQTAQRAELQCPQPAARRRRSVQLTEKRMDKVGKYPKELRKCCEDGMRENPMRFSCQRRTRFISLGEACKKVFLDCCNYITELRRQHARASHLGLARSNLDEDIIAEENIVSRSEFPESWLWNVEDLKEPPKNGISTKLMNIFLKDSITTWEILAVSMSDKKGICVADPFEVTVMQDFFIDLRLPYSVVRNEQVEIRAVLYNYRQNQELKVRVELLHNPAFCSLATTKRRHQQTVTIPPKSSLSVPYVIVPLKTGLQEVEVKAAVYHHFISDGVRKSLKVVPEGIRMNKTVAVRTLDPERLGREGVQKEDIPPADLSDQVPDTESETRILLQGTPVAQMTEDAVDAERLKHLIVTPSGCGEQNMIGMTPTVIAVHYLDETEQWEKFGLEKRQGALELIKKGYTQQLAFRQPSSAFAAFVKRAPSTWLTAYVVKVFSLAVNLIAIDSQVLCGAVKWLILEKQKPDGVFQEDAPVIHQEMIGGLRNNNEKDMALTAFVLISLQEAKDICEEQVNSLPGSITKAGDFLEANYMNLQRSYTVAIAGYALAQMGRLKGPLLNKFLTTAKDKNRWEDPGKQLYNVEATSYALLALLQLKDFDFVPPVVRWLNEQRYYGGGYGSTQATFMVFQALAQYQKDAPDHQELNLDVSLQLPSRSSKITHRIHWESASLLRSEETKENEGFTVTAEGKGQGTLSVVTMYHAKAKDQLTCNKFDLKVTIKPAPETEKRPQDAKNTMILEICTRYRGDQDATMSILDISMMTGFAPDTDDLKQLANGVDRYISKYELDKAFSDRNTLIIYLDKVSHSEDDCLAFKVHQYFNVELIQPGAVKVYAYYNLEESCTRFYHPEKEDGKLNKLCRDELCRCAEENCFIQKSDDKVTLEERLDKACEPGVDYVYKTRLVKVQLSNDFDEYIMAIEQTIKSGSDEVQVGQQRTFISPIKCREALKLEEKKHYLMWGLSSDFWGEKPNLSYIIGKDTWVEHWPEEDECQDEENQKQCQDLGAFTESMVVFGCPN
TEST_PROTOCOL: cell-based or functional assay
Starred links: 1 amine or outer side, 2 acyl side, 3 side chain; linkers in the order of their positions; H or OH if unused. Positions of bridges follow the written chain, without caps; N, C: chain ends. Non-standard residues stand in square brackets, D forms with d. Groups on a side chain read outwards from the residue. *: point of attachment. Trp(1-Me) = Cn1cc(C[C@H](N)C(=O)O)c2ccccc21; C18 diacid = O=C(O)CCCCCCCCCCCCCCCCC(=O)*; γGlu = O=C(O)[C@H](CCC(=O)[*:2])N[*:1]; AEEA = NCCOCCOCC(=O)O; Sar = CNCC(=O)O
Each item that follows carries a reported inhibition of hemolysis IC50.

{"columns": ["BINDER", "inhibition of hemolysis IC50"],
 "data": [
  ["Ac-SAYCI[Trp(1-Me)]QDWGEHRC[Sar]EK([γGlu-Gly-Lys-γGlu-C18 diacid])-NH2 (disulfide 4-14) [Compound 105]", "< 100 nM"],
  ["Ac-ICIWQDWGEHRCTEA-NH2 (disulfide 2-12; SMILES CC[C@H](C)[C@H](NC(C)=O)C(=O)N[C@H]1CSSC[C@@H](C(=O)N[C@H](C(=O)N[C@@H](CCC(=O)O)C(=O)N[C@@H](C)C(N)=O)[C@@H](C)O)NC(=O)[C@H](CCCNC(=N)N)NC(=O)[C@H](Cc2c[nH]cn2)NC(=O)[C@H](CCC(=O)O)NC(=O)CNC(=O)[C@H](Cc2c[nH]c3ccccc23)NC(=O)[C@H](CC(=O)O)NC(=O)[C@H](CCC(N)=O)NC(=O)[C@H](Cc2c[nH]c3ccccc23)NC(=O)[C@H]([C@@H](C)CC)NC1=O) [Compound 25]", "< 100 nM"],
  ["Ac-SEYCI[Trp(1-Me)]QEWGEHRC[Sar]EGE-{AEEA-AEEA-K(γGlu-Gly-γGlu-17-carboxy-heptadecanoyl)-NH2} (disulfide 4-14) [Compound 125]", "< 500 nM"]
]}
